# test.method.notes: Cytotoxicity against human HCT116/VM46 cells assessed as reduction in cell viability after 72 hrs by phosphatase assay
# Assay type: cell-based
# study.conditions: HCT-116/VM46, 72 h
property.name: IC50 (nM)
The reply should be a number in nM, with the unit left off.

Look over these answered cases.
entry.smiles: CC[C@]1(NC(=O)c2cccnc2)C[C@H]2CN(CCc3c([nH]c4ccccc34)[C@@](C(=O)OC)(c3cc4c(cc3OC)N(C)[C@H]3[C@@](O)(C(=O)OC)[C@H](OC(C)=O)[C@]5(CC)C=CCN6CC[C@]43[C@@H]65)C2)C1
IC50 / nM: 50

entry.smiles: CC[C@]1(NC(=O)c2ccnnc2)C[C@H]2CN(CCc3c([nH]c4ccccc34)[C@@](C(=O)OC)(c3cc4c(cc3OC)N(C)[C@H]3[C@@](O)(C(=O)OC)[C@H](OC(C)=O)[C@]5(CC)C=CCN6CC[C@]43[C@@H]65)C2)C1
IC50 / nM: 700

entry.smiles: CC[C@]1(NC(=O)c2cccs2)C[C@H]2CN(CCc3c([nH]c4ccccc34)[C@@](C(=O)OC)(c3cc4c(cc3OC)N(C)[C@H]3[C@@](O)(C(=O)OC)[C@H](OC(C)=O)[C@]5(CC)C=CCN6CC[C@]43[C@@H]65)C2)C1
IC50 / nM: 6.7

Data request: I am curious: what IC50 value has been reported for "CC[C@]1(NC(=O)c2ccc(C(F)(F)F)cc2)C[C@H]2CN(CCc3c([nH]c4ccccc34)[C@@](C(=O)OC)(c3cc4c(cc3OC)N(C)[C@H]3[C@@](O)(C(=O)OC)[C@H](OC(C)=O)[C@]5(CC)C=CCN6CC[C@]43[C@@H]65)C2)C1" ?
Data returned: 55
